assay: Pharmacokinetics in ICR mice after intravenous and intragastric administration; format: in vivo; settings: male, ICR, mouse, plasma, iv, 2 mg/kg, ICR mice, IV 2 mg/kg, mean of 3 animals; read-out: Vz
Vd strictly less than 0.7 L/kg = class 1. Otherwise class 0.

Q. Is it true that Vd reported for "CCOc1cc(OC)c(-c2nc3c(n2C(C)C)[C@@]2(C(=O)Nc4cc(Cl)ccc42)N(c2cc(Cl)ccc2F)C3=O)cn1" is less than 0.7 L/kg?
A. class 1

Q. Is it true that Vd reported for "COc1cc(OC)c(-c2nc3c(n2C(C)C)[C@@]2(C(=O)Nc4cc(Cl)ccc42)N(c2cc(Cl)ccc2F)C3=O)cn1" is less than 0.7 L/kg?
A. class 0

Q. Is it true that Vd reported for "CCOc1cc(OC)c(-c2nc3c(n2C(C)C)[C@@]2(C(=O)Nc4cc(Cl)ccc42)N(c2cc(Cl)cnc2C)C3=O)cn1" is less than 0.7 L/kg?
A. class 0

Q. Is it true that Vd reported for "COc1nc(OCCF)ncc1-c1nc2c(n1C(C)C)[C@@]1(C(=O)Nc3cc(Cl)ccc31)N(c1cc(Cl)ccc1C)C2=O" is less than 0.7 L/kg?
A. class 1

---

experiment: Pharmacokinetics in ICR mice after intravenous and intragastric administration; type: in vivo; conditions: male, ICR, mouse, plasma, iv, 2 mg/kg, ICR mice, IV 2 mg/kg, mean of 3 animals; read-out: Tmax
Listed compounds paired with reported log10(Tmax)
Hello, just confirming the data are log10 of Tmax with units of min.

Below: 6 compounds and their reported log10(Tmax).
COc1cc(OC)c(-c2nc3c(n2C(C)C)[C@@]2(C(=O)Nc4cc(Cl)ccc42)N(c2cccc(Cl)c2)C3=O)cn1 : 0.70
CCOc1cc(OC)c(-c2nc3c(n2C(C)C)[C@@]2(C(=O)Nc4cc(Cl)ccc42)N(c2cc(Cl)ccc2C)C3=O)cn1 : 1.37
COc1ncc(-c2nc3c(n2C(C)C)[C@@]2(C(=O)Nc4cc(Cl)ccc42)N(c2cc(F)cc(Cl)c2)C3=O)c(OC)n1 : 0.92
CCOc1cc(OC)c(-c2nc3c(n2C(C)C)[C@@]2(C(=O)Nc4cc(Cl)ccc42)N(c2cc(Cl)cnc2C)C3=O)cn1 : 0.70
COc1cc(C2CC2)ncc1-c1nc2c(n1C(C)C)[C@@]1(C(=O)Nc3cc(Cl)ccc31)N(c1cc(Cl)ccc1C)C2=O : 1.78
COc1nc(C2CC2)ncc1-c1nc2c(n1C(C)C)[C@@]1(C(=O)Nc3cc(Cl)ccc31)N(c1cc(Cl)cnc1C)C2=O : 0.70

Okay, next one:
Lab note: measured log10(Tmax) of "CCOc1ncc(-c2nc3c(n2C(C)C)[C@@]2(C(=O)Nc4cc(Cl)ccc42)N(c2cc(Cl)cnc2C)C3=O)c(OC)n1" was 0.92

---

Listed molecules paired with reported Cmax
test: Pharmacokinetics in ICR mice after intravenous and intragastric administration; format: in vivo; conditions: male, ICR, mouse, plasma, po, 5 mg/kg, PO 5 mg/kg, ICR mice, Mean; read-out: Cmax
Report only the number, with the unit ng/mL understood.

Below: 3 molecules and their reported Cmax.
COc1ccc(-c2nc3c(n2C(C)C)[C@@]2(C(=O)Nc4cc(Cl)ccc42)N(c2cc(Cl)ccc2C)C3=O)c(OC)c1 : 1760
COc1cc(OC)c(-c2nc3c(n2C(C)C)[C@@]2(C(=O)Nc4cc(Cl)ccc42)N(c2cc(Cl)ccc2C)C3=O)cn1 : 1790
COc1ncc(-c2nc3c(n2C(C)C)[C@H](c2ccc(Cl)cc2)N(c2cc(Cl)cn(C)c2=O)C3=O)c(OC)n1 [HDM201, reference compound] : 569

Lab note: measured Cmax of "COc1ncc(-c2nc3c(n2C(C)C)[C@@]2(C(=O)Nc4cc(Cl)ccc42)N(c2cccc(Cl)c2)C3=O)c(OC)n1" was 398

Lab note: measured Cmax of "COc1ncc(-c2nc3c(n2C(C)C)[C@@]2(C(=O)Nc4cc(Cl)ccc42)N(c2cc(Cl)ccc2C)C3=O)c(OC)n1" was 730

Lab note: measured Cmax of "COc1cc(N(C)C)ccc1-c1nc2c(n1C(C)C)[C@@]1(C(=O)Nc3cc(Cl)ccc31)N(c1cc(Cl)ccc1C)C2=O" was 2700

Every entry's value here was drawn from patent US11339171B2.
